- Experimental Details: gradient 5% acetonitrile 3 min, to 50% in 2 min, to 85% in 15 min, held 3 min, 100 µL/min
- Experimental Conditions: column: Zorbax Extend-C18 2.1 x 50 mm; eluents: water / acetonitrile, 0.1% formic acid
Experimental Readout: RP-LC retention time (s)

Molecule | Experimental Readout | Unit Info | Measured
CC1CCCN(CC2CCN(S(=O)(=O)Cc3ccccc3F)CC2)C1 (stereo not given) | RP-LC retention time | s | 650
COc1nccnc1N1CCC(N(C)C(=O)c2ccc(C)s2)C1 (stereo not given) | RP-LC retention time | s | 785
CCCNS(=O)(=O)c1cc(-c2[nH]ncc2C(=O)N2CCOCC2)oc1C | RP-LC retention time | s | 662
O=C(Cn1c(=O)n(CCc2ccccc2)c(=O)c2ncccc21)Nc1ccc2c(c1)OCO2 | RP-LC retention time | s | 734
CCn1cnc(S(=O)(=O)N2CCC(C(=O)Nc3ccccc3OC)CC2)c1 | RP-LC retention time | s | 666
COc1ccc(C(=O)N2CCC(n3nc(-c4ccsc4)ccc3=O)CC2)cc1 | RP-LC retention time | s | 797
c1ccc2c(-c3nc(C4CC4)no3)nnc(NC3CCCC3)c2c1 | RP-LC retention time | s | 725
COc1cccc(NC(=O)N2CCC[C@@H]2C(=O)NCc2csc(-c3cccs3)n2)c1 | RP-LC retention time | s | 773

P: CCOc1ccccc1NC(=O)Cn1nnc(C(=O)Nc2cc(Cl)ccc2OC)c1N
Q: CCOC(=O)CCC(=O)N1CCN(Cc2nc(C(C)(C)C)cs2)CC1
// query Sorting ascending by RP-LC retention time, which comes first: P or Q ? Provide the label of your selected option as the answer.
// result Q
(Q: 611 s, P: 970 s)

###

- Experimental Details: gradient 5% acetonitrile 3 min, to 50% in 2 min, to 85% in 15 min, held 3 min, 100 µL/min
- Experimental Conditions: column: Zorbax Extend-C18 2.1 x 50 mm; eluents: water / acetonitrile, 0.1% formic acid
Experimental Readout: RP-LC retention time (s)

Compound | Experimental Readout | Measured
Cc1cc(=O)n(CC(=O)Nc2ccc(Br)cc2)c(N2CCC(C)CC2)n1 | RP-LC retention time | 793
Cc1cc2[nH]c(C(=O)Nc3cc(F)cc(F)c3)c(CN3CCOCC3)c2s1 | RP-LC retention time | 738
Cn1nc(-c2nnc(-c3ccccc3)o2)c2c1CCN(S(=O)(=O)c1ccc(F)c(Cl)c1)C2 | RP-LC retention time | 979
COc1ccc(CNC(=O)C2CCN(C(=O)C3Sc4ccccc4NC3=O)CC2)cc1 (centres undefined) | RP-LC retention time | 731
O=C(Nc1cn(-c2ccc(C(=O)N3CCN(c4cccc(Cl)c4)CC3)cc2)cn1)C1CC1 | RP-LC retention time | 810
Cc1ccc(OCC(=O)N2C[C@@H]3C[C@H]2C[C@@H]3NS(=O)(=O)c2ccccc2)cc1 | RP-LC retention time | 764
CN1C(=O)c2cc(C(=O)N3CCOCC3)nn2CC1(C)C(=O)NCc1ccc(F)cc1 (centres undefined) | RP-LC retention time | 644
O=C(NCc1ccc(Cl)cc1)C1CCCN(c2nn3c(=O)c4c(nc3s2)CCCC4)C1 (centres undefined) | RP-LC retention time | 808
COCCN1CC2(CCN(S(=O)(=O)c3ccccc3Cl)CC2)C1c1ccccc1 (centres undefined) | RP-LC retention time | 719

###

- Experimental Details: gradient 5% acetonitrile 3 min, to 50% in 2 min, to 85% in 15 min, held 3 min, 100 µL/min
- Experimental Conditions: column: Zorbax Extend-C18 2.1 x 50 mm; eluents: water / acetonitrile, 0.1% formic acid
Experimental Readout: RP-LC retention time (s)

Molecule | RP-LC retention time / s
O=S(=O)(Nc1ccc(F)c(F)c1)c1c[nH]c2ncccc12 | 739
Cc1cc(NC(=O)c2ccc3c(c2)OCO3)sn1 | 682
CCC1CCCCN1CCCNC(=O)C1CCN(c2ccc(N3CCCCC3)nn2)CC1 (centres undefined) | 561

1: O=C(CCc1c(-c2ccc(Cl)cc2)nc2ccccn12)NCc1ccccn1
2: Cc1ccc(NC(=O)Cn2ncc3c(c2=O)N(CC2CC2)C(=O)CS3)cc1Cl
// query Between 1 and 2 , whose measured RP-LC retention time reads higher? Let me know the label of the one you choose.
// result 2

###

- Experimental Details: gradient 5% acetonitrile 3 min, to 50% in 2 min, to 85% in 15 min, held 3 min, 100 µL/min
- Experimental Conditions: column: Zorbax Extend-C18 2.1 x 50 mm; eluents: water / acetonitrile, 0.1% formic acid
Experimental Readout: RP-LC retention time (s)

Compound | Unit Info | RP-LC retention time
Cc1ccccc1Cn1cc(-c2ccncc2)cc1C(=O)NC(C)c1cccnc1 (stereo not given) | s | 579
CCOc1cccc(C2C(C(=O)OC(C)C)=C(C)NC3=C2C(=O)C(C(=O)OC)C(C)C3)c1 (stereo not given) | s | 968
O=C(NCc1ccccc1Cl)c1cn2c(n1)CCCC2 | s | 613
CCc1nnc2ccc(-c3noc(Cc4cc(OC)cc(OC)c4)n3)cn12 | s | 844
CCCOc1nn(CCC)cc1C(=O)N1CCC(C(=O)OC)CC1 | s | 736
COc1cc(-c2nc3ncccn3c2Nc2cccc(Cl)c2C)ccc1O | s | 715
CCc1ccc(C(=O)N2CCC3(C2)C(=O)N(C)c2ccc(OC)cc23)cc1 (stereo not given) | s | 840
CCCCn1cc(S(=O)(=O)NC2CCCCC2)c2cccnc21 | s | 1010
CCN(CC)c1ncc2c(n1)CCC(C(=O)Nc1ccc(OC)c(F)c1)C2 (stereo not given) | s | 726
O=c1[nH]nc(-c2cc(-c3ccccc3)nc3ccccc23)o1 | s | 985
O=C(Nc1ccc(F)cc1F)C1(CCO)CCN(Cc2ccccc2)C1 (stereo not given) | s | 620
CC(C)CNC(=O)NCCn1nnc2cc(C(=O)N3CCCC3)ccc21 | s | 618
COc1ccc(-c2nnc(Cc3nc(-c4cccnc4)no3)o2)cc1 | s | 755
CN(C)CCn1c2c(c(SCC(=O)Nc3ccccc3Cl)nc1=O)CCC2 | s | 624
Cc1ccc(NC(=O)Cn2c(C)nc3onc(C)c3c2=O)c(C)c1 | s | 800
Cc1nc(-c2csc(S(=O)(=O)N3CCCC(C(=O)Nc4c(C)cccc4C)C3)c2)no1 (stereo not given) | s | 1060
CCC(=O)N1CCc2cc(N3CC(C(=O)Nc4ccc(C)cc4Cl)CC3=O)ccc21 (stereo not given) | s | 789
O=C(Cn1cccc1-c1nnc(-c2ccccc2)o1)N1CCN(c2ccc(Cl)cc2)CC1 | s | 1100
Cc1cccc(-c2ncccc2CNS(=O)(=O)c2cccc(F)c2)c1 | s | 724
Cc1ccccc1CNC(=O)Cc1csc2nc(-c3ccccc3)cn12 | s | 792

###

- Experimental Details: gradient 5% acetonitrile 3 min, to 50% in 2 min, to 85% in 15 min, held 3 min, 100 µL/min
- Experimental Conditions: column: Zorbax Extend-C18 2.1 x 50 mm; eluents: water / acetonitrile, 0.1% formic acid
Experimental Readout: RP-LC retention time (s)

Molecule | Experimental Readout | Measured
Cc1c(-c2ccnc(N3CCN(Cc4ccccc4)CC3)n2)cnc2nc(-c3ccccc3)nn12 | RP-LC retention time | 713
CCCNC(=O)C1CCN(c2nccnc2Sc2cccc(C)c2)CC1 | RP-LC retention time | 946
O=C(c1c(F)cccc1F)N1CCN(S(=O)(=O)C2CC2)CC1 | RP-LC retention time | 691
COc1ccc(NC(=O)CSc2cc(N3CCN(c4ccc(OC)cc4)CC3)ncn2)cc1 | RP-LC retention time | 859
CC(C)n1cnc2cc(CNC(=O)CCc3ccccc3)ccc21 | RP-LC retention time | 631
CC(NC(=O)C(=O)NC1CCCCC1)C(c1cccs1)N1CCOCC1 (stereo not given) | RP-LC retention time | 604
O=C(COc1ccc2ccccc2c1)NCC1CCN(C2CCCC2)CC1 | RP-LC retention time | 590
Cn1nccc1C(=O)N1CCN(c2cc(-c3ccccc3)[nH]n2)CC1 | RP-LC retention time | 671
O=C(c1ccc(Br)o1)N1CCC2(CC1)OCCS2 | RP-LC retention time | 771
O=C(NCC1CN(CC2CC2)CC12CCCCC2)Nc1cc(F)ccc1F (stereo not given) | RP-LC retention time | 718

###

- Experimental Details: gradient 5% acetonitrile 3 min, to 50% in 2 min, to 85% in 15 min, held 3 min, 100 µL/min
- Experimental Conditions: column: Zorbax Extend-C18 2.1 x 50 mm; eluents: water / acetonitrile, 0.1% formic acid
Experimental Readout: RP-LC retention time (s)

Compound | RP-LC retention time / s
Cc1cc(NC(=O)c2ccccc2C(F)(F)F)n(-c2nc(-c3cccs3)cs2)n1 | 1250
CCN(CC)CCNC(=O)C1COc2ccc(OC)cc2C1 (centres undefined) | 602
O=C(NCc1cccc(C(F)(F)F)c1)C1CCCN(c2nccnc2Sc2ccccc2)C1 (centres undefined) | 1100
CN(c1nccn2c(=O)n(CC(=O)Nc3ccc4c(c3)OCO4)nc12)C1CCCCC1 | 716
COc1ccc(-c2nnc(Cc3nc(-c4ccc(F)cc4)no3)o2)cc1OC | 907
COc1ccc(NC(=O)N2CCC(C)(C(=O)NCc3ccc4c(c3)OCO4)CC2)c(OC)c1 | 720

P: O=S(=O)(c1cccc2nsnc12)N1CCc2nc(-c3ccc(F)cc3)ncc2C1
Q: CCCNC(=O)C1CCCN(c2nc3ncn(CC(=O)NC4CCCC4)c(=O)c3s2)C1 (centres undefined)
// query When their RP-LC retention time values are compared, which is larger, P or Q ? Reply with the label of the item you choose.
// result P

1: Cc1cc2c(cc1S(=O)(=O)N1CCCC1C(=O)N1CCCCC1)OC(C)C(=O)N2 (centres undefined)
2: CCOc1cccc(-c2noc(CN3C(=O)C(C)Oc4ccccc43)n2)c1 (centres undefined)
// query Among 1 and 2 , which shows a numerically higher RP-LC retention time result? Pick one and reply with its label.
// result 2
